# Target: Calcium and integrin-binding protein 1 (Homo sapiens) (UniProt Q99828)
# Sequence (Q99828 whole entry, looked up): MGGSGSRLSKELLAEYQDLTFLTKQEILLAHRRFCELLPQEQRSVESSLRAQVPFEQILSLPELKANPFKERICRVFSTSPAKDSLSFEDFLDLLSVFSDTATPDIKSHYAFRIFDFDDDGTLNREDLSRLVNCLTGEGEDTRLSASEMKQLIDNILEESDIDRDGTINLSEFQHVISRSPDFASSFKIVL
# Procedure Details: Validation qHTS for Identification of Calcium Integrin Binding protein 1 (CIB1) Competitor (AID 1508618)
# Experimental Parameters: CIB1-GST / FITC-alphaIIb peptide fluorescence polarization; series mostly up to 114 µM
Records with an inconclusive call do not appear. Calls of active or inactive are those of the source. Calls come from the whole dose curve; as a rule, active = well fitted curve in the direction sought with a large enough effect; inconclusive = small, poorly fitted or top-dose-only effect, or another doubt; inactive = no such curve, though single readings can be large or run the other way.
Observation Type: outcome

[[record]]
compound = "NC(=O)c1ncn([C@@H]2O[C@H](CO)[C@@H](O)[C@H]2O)n1"
target = "Calcium and integrin-binding protein 1 (Homo sapiens) (UniProt Q99828)"
observation_type = "outcome"
val = "inactive"

[[record]]
compound = "CNCC(O)c1ccc(O)c(O)c1 (centres undefined)"
target = "Calcium and integrin-binding protein 1 (Homo sapiens) (UniProt Q99828)"
observation_type = "outcome"
val = "inactive"

[[record]]
compound = "OCc1cc(C(O)CNCCCCCCOCCCCc2ccccc2)ccc1O (centres undefined)"
target = "Calcium and integrin-binding protein 1 (Homo sapiens) (UniProt Q99828)"
observation_type = "outcome"
val = "inactive"

[[record]]
compound = "CN(C)CCOC(C)(c1ccccc1)c1ccccn1 (centres undefined)"
target = "Calcium and integrin-binding protein 1 (Homo sapiens) (UniProt Q99828)"
observation_type = "outcome"
val = "inactive"


====

# Procedure Details: qHTS of pediatric cancer cell lines to identify multiple opportunities for drug repurposing: Primary screen for DAOY cells (AID 1347090); note: nearly all actives have a fitted effect of over 55% in size
# Experimental Parameters: DAOY medulloblastoma viability, CellTiter-Glo luminescence, 48 h; series mostly up to 46 µM
Results filed as inconclusive are left out. Calls of active or inactive are those of the source. The call rests on the fitted dose curve; in most records, active means well fitted cell-killing curve with a large enough effect; inconclusive means small, poorly fitted or top-dose-only effect; inactive means flat fitted curve, though single readings scatter.
Observation Type: activity change, negative = cytotoxic

Answered examples (4):
[[record]]
compound = "C[C@@H]1C[C@H]2[C@@H]3C[C@H](F)C4=CC(=O)C=C[C@]4(C)[C@@]3(F)[C@@H](O)C[C@]2(C)[C@@]1(O)C(=O)CO"
val = "inactive"

[[record]]
compound = "CC1=C(CC(=O)O)c2cc(F)ccc2/C1=C\\c1ccc(S(C)=O)cc1 (stereo not drawn)"
val = "inactive"

[[record]]
compound = "CC(=O)Oc1c(C)c(C)c2c(c1C)CC[C@@](C)(CCC[C@H](C)CCC[C@H](C)CCCC(C)C)O2"
val = "inactive"

[[record]]
compound = "CC(C)(C(=O)O)c1ccc(C(O)CCCN2CCC(C(O)(c3ccccc3)c3ccccc3)CC2)cc1 (stereo not drawn)"
val = "inactive"


State the recorded activity change, negative = cytotoxic for every item in the following list.
1. CN1CCOC(c2ccccc2)c2ccccc2C1 (stereo not drawn)
2. CCN(CC)CCOC(=O)C1(C2CCCCC2)CCCCC1
3. COc1ccc2cc1Oc1ccc(cc1)C[C@H]1c3c(cc4c(c3Oc3cc5c(cc3OC)CCN(C)[C@@H]5C2)OCO4)CCN1C
4. Oc1ccc(C(O)CNCCCCCCNCC(O)c2ccc(O)c(O)c2)cc1O (stereo not drawn)

inactive
inactive
inactive
inactive

For each of the items listed, what is its activity change, negative = cytotoxic?
1. CCC(=O)Nc1ccc(O)cc1
2. C[C@H](NC(CCc1ccccc1)C(=O)O)C(=O)N1CCC[C@H]1C(=O)O (stereo partly drawn)
3. Cc1cc2c(cc1S(N)(=O)=O)S(=O)(=O)CCC2
4. CC(C)(C)C(=O)NCCCC(=O)O
5. OC[C@H]1O[C@@H](O[C@@H]2[C@@H](CO)O[C@](O)(CO)[C@H]2O)[C@H](O)[C@@H](O)[C@H]1O
6. NC(CSCC(=O)O)C(=O)O (stereo not drawn)
7. CN(C)CCN(Cc1ccccc1)c1ccccn1
8. Cn1c(=O)c2c(ncn2CC2OCCO2)n(C)c1=O

["inactive", "inactive", "inactive", "inactive", "inactive", "inactive", "inactive", "inactive"]
